experiment: TNS fluorescence pKa protocol on saRNA-LNP; type: physicochemical; conditions: saRNA-LNP containing the lipid, in a series of buffers; saRNA-LNP with the lipid; TNS 6 μM, pH 4 to 9.5, 25° C.; read-out: Apparent pKa
reported_metric: pKa

| entry_smiles | endpoint_value |
| --- | --- |
| CCCCC(CCCC)OC(=O)CCCCCCCCC(CCCCCCCCC(=O)OC(CCCC)CCCC)OC(=O)CSC1CCN(C)CC1 | 6.1 |

CCCCC(CCCC)OC(=O)CCCCCCCCC(CCCCCCCCC(=O)OC(CCCC)CCCC)OC(=O)COCCCN(C)C yielded pKa of 7.1

Reported pKa ( CCCCC(CCCC)OC(=O)CCCCCCCCC(CCCCCCCCC(=O)OC(CCCC)CCCC)OC(=O)CSCCN(CC)CC ) = 5.6

###

assay: TNS fluorescence pKa protocol on saRNA-LNP; type: physicochemical; conditions: saRNA-LNP containing the lipid, in a series of buffers; saRNA-LNP with the lipid; TNS 6 μM, pH 4 to 9.5, 25° C.; read-out: Apparent pKa
reported_metric: pKa
Reply briefly: the number, and no unit.

| compound | pKa |
| --- | --- |
| CCCCC(CCCC)OC(=O)CCCCCCCCC(CCCCCCCCC(=O)OC(CCCC)CCCC)OC(=O)COCCN(C)C [SL08] | 7 |
| CCCCC(CCCC)OC(=O)CCCCCCCCC(CCCCCCCCC(=O)OC(CCCC)CCCC)OC(=O)COC1CCN(C)CC1 [SL06] | 7.1 |
| CCCCC(CCCC)OC(=O)CCCCCCCCC(CCCCCCCCC(=O)OC(CCCC)CCCC)OC(=O)CSCCN(C)C [SL10] | 5.8 |

So, CCCCC(CCCC)OC(=O)CCCCCCCCC(CCCCCCCCC(=O)OC(CCCC)CCCC)OC(=O)COC1CCN(CCCO)CC1 [SL12] ? Its pKa was 6.9

Each recorded value in this set is attributed to patent US20240425454A1.
